Assay: self-splicing fitness, log relative to wild type (ln ratio); higher = more splicing; Tetrahymena group I intron in knt gene, E. coli kanamycin selection, DiMSum; sequences stand for … in CUCUCU…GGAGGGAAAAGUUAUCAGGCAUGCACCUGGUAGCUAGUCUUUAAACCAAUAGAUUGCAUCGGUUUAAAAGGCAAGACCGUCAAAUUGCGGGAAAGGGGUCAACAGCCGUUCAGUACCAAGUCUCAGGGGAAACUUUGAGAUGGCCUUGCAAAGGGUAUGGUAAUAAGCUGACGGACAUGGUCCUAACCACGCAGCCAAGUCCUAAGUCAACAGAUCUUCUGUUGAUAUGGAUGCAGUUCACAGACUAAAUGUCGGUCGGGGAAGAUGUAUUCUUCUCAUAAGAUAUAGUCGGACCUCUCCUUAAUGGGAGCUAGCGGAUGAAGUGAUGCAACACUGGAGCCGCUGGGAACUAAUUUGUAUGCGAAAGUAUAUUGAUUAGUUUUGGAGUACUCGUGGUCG;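 also: selection with 25 µg/mL kanamycin versus none on LB agar overnight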
Details: 37 °C
Think of -1 as a floor: if self-splicing fitness (ln) stands on it or above, it is 1 (yes); beneath it, 0 (no).

Below are worked cases with known answers.
{"CHAIN": "AAUUAGCAAUAUUACGUAUU", "GROUP LABEL": "1 (yes)"}
{"CHAIN": "AUAAAGCAAUAUUACGGACC", "GROUP LABEL": "1 (yes)"}
{"CHAIN": "CAGGAGCAAUAUUACGGAAA", "GROUP LABEL": "0 (no)"}
{"CHAIN": "GACGAGCAAUAUUACGAUCC", "GROUP LABEL": "1 (yes)"}

QUERY: Dear colleague, could you confirm whether "AGUCAGCAAUAUUACGAGGG" has self-splicing fitness (ln) at or above -1?
RESULT: 0 (no)

QUERY: Does the sequence "ACGAAGCAAUAUUACGAUCA" have recorded self-splicing fitness (ln) that is -1 or more?
RESULT: 1 (yes)

---

Test: self-splicing fitness, log relative to wild type (ln ratio); higher = more splicing; Tetrahymena group I intron in knt gene, E. coli kanamycin selection, DiMSum; sequences stand for … in CUCUCU…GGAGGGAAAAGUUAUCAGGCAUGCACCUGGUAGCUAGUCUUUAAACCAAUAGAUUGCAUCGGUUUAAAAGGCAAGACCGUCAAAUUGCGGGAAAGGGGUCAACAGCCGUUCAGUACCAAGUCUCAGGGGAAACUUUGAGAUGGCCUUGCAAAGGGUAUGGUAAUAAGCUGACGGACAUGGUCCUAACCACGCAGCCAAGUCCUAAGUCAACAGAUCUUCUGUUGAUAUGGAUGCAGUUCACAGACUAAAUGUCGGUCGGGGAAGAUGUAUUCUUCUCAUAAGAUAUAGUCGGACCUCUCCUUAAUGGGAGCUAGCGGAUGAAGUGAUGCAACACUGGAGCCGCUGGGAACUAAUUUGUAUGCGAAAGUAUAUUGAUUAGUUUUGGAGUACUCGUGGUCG
Settings: 30 °C
Entries are sorted into classes by self-splicing fitness (ln) as follows: bottom end: < -3; midrange: ≥ -3 and < -2; top end: ≥ -2

Study these solved cases before continuing.
{"CHAIN": "UGGCAGCAAUAUUACGAUCC", "GROUP LABEL": "top end"}
{"CHAIN": "GUAAAGCAAUAUUACGAGCG", "GROUP LABEL": "top end"}

QUERY: Into which category would you place "CAGGAGCAAUAUUACGGAUG" ?
RESULT: midrange

QUERY: Which class is correct for the following sequence? "CGGAAGCAAUAUUACGUUGG"
RESULT: top end

QUERY: Class label required: "AACUAGCAAUAUUACGGCUU"
RESULT: top end

QUERY: Which category does the recorded self-splicing fitness (ln) put "GAAGAGCAAUAUUACGUACU" in?
RESULT: midrange

Reference source: the supplement of paper PMC7877785
